Method Description: amyloid nucleation score (Sup35N fusion, yeast selection) (log enrichment); library NNK1; higher = more nucleation; inactive = no reads after selection;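 note: zero at mode of non-aggregating sequences after 7 days selection at 30°C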
Measurement Label: amyloid nucleation score

VWTYNLI: inactive
QWQIDMIPRCLGDMNLIVLQ: inactive
DHITKHFIGV: inactive
KVCVLLSSCIYDNLHVR: 0.402

###

Method Description: amyloid nucleation score (Sup35N fusion, yeast selection) (log enrichment); library NNK1; higher = more nucleation; inactive = no reads after selection
Measurement Label: amyloid nucleation score

YVMDMIYFYDGLVWSCLCWI: inactive
DRFSYLEHDSRDRRRVE: inactive
ADDACVSET: inactive

###

Method Description: amyloid nucleation score (Sup35N fusion, yeast selection) (log enrichment); library NNK1; higher = more nucleation; inactive = no reads after selection
Measurement Label: amyloid nucleation score

// solved cases for amyloid nucleation score follow
MPTLNYIVKCSREVTGGILD: inactive
ENKHVGICSGVQFVAFETCY: inactive
VYYLIVHLHSGMLHQIVELS: 0.707
YSECQLSRARD: inactive
DYTILYVVWILCGIKMSVVI: 0.699
YCMCCNNRVLMVYHCTQVSA: inactive

Supply recorded amyloid nucleation score for `EILETGRCLSFLYRIVDGCI` here. inactive

Supply reported amyloid nucleation score belonging to this sequence: `LFPIDSVNGTDWMTRMRDKI` inactive
